Reference source: paper PMC10397247

target.desc: T1, 4H2343-AA
T1 chain: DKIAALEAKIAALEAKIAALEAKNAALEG
assay.overview: two-hybrid library CCmax;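 note: natural log of median RNA to DNA barcode read ratio; higher means stronger binding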
measurement.setup: mean of both orientations
observation.type: interaction score

DENAALKAKIAALEAENAALKAKIAALEG [4H1821-AA] ... -1.42

A = DEIAALEAENAALEAKIAALKAKNAALEG [4H175-AA]
B = DKIAALEAEIAALKAEIAALKAENAALKG [4H2124-AA]
QUERY: Which of the two gives a bigger number for interaction score: A or B ? Refer to your chosen entry by its label in the reply.
RESULT: B

A = DENAALKAKNAALEAEIAALKAEIAALKG [4H1930-AA]
B = DKIAALEAENAALKAEIAALKAKIAALEG [4H2253-AA]
QUERY: Could you tell me which of these two has the smaller interaction score figure? First: A Second: B # respond with the chosen item's label
RESULT: B
(B: -2.02, A: -1.34)
